# TESTED SYSTEM: human α1G T-type channels (Homo sapiens)
# METHOD DESCRIPTION: T-type calcium channel block, whole cell patch clamp, α1G
# CONDITION INFO: HEK cells stably expressing human α1G; mainly non-inactivated protocol; values above 10,000 nM represented as 10000
Below is a list of entries, each paired with its recorded pIC50 value.
# pIC50: negative log10 of molar concentration; output just the value

Solved cases (4 shown):
{"columns": ["COMPOUND", "READOUT LABEL", "MEASURED RESULT"],
 "data": [
  ["O=C(N[C@H]1CC[C@@](F)(S(=O)(=O)c2cccc(OC(F)(F)F)c2)CC1)c1ccc(F)c(Cl)c1 [Compound 256]", "pIC50", 5.70],
  ["CC(C)(CCNC(=O)c1ccnc(C(F)(F)F)n1)S(=O)(=O)c1cc(F)cc(C(F)(F)F)c1 [Compound 534]", "pIC50", 6.08],
  ["O=C(N[C@H]1CC[C@@](F)(S(=O)(=O)c2cccc(C(F)(F)F)c2)CC1)c1ccnn1CC(F)(F)F [Compound 245]", "pIC50", 5.42],
  ["COc1cc(Cl)ccc1C(=O)N[C@H]1CC[C@H](S(=O)(=O)c2cccc(C(F)(F)F)c2)CC1 [Compound 127]", "pIC50", 5.94]
]}

Consider the additional compound presented here.
Task item: Dear colleague, I am looking for the recorded pIC50 of the following compound: CC(C)(CNS(=O)(=O)c1cccc2cccnc12)S(=O)(=O)c1cccc(C(F)(F)F)c1 [Compound 491]
Reply: 6.33

----------
# TESTED SYSTEM: CAv1.2 (Homo sapiens)
# Sequence (Q13936 whole entry): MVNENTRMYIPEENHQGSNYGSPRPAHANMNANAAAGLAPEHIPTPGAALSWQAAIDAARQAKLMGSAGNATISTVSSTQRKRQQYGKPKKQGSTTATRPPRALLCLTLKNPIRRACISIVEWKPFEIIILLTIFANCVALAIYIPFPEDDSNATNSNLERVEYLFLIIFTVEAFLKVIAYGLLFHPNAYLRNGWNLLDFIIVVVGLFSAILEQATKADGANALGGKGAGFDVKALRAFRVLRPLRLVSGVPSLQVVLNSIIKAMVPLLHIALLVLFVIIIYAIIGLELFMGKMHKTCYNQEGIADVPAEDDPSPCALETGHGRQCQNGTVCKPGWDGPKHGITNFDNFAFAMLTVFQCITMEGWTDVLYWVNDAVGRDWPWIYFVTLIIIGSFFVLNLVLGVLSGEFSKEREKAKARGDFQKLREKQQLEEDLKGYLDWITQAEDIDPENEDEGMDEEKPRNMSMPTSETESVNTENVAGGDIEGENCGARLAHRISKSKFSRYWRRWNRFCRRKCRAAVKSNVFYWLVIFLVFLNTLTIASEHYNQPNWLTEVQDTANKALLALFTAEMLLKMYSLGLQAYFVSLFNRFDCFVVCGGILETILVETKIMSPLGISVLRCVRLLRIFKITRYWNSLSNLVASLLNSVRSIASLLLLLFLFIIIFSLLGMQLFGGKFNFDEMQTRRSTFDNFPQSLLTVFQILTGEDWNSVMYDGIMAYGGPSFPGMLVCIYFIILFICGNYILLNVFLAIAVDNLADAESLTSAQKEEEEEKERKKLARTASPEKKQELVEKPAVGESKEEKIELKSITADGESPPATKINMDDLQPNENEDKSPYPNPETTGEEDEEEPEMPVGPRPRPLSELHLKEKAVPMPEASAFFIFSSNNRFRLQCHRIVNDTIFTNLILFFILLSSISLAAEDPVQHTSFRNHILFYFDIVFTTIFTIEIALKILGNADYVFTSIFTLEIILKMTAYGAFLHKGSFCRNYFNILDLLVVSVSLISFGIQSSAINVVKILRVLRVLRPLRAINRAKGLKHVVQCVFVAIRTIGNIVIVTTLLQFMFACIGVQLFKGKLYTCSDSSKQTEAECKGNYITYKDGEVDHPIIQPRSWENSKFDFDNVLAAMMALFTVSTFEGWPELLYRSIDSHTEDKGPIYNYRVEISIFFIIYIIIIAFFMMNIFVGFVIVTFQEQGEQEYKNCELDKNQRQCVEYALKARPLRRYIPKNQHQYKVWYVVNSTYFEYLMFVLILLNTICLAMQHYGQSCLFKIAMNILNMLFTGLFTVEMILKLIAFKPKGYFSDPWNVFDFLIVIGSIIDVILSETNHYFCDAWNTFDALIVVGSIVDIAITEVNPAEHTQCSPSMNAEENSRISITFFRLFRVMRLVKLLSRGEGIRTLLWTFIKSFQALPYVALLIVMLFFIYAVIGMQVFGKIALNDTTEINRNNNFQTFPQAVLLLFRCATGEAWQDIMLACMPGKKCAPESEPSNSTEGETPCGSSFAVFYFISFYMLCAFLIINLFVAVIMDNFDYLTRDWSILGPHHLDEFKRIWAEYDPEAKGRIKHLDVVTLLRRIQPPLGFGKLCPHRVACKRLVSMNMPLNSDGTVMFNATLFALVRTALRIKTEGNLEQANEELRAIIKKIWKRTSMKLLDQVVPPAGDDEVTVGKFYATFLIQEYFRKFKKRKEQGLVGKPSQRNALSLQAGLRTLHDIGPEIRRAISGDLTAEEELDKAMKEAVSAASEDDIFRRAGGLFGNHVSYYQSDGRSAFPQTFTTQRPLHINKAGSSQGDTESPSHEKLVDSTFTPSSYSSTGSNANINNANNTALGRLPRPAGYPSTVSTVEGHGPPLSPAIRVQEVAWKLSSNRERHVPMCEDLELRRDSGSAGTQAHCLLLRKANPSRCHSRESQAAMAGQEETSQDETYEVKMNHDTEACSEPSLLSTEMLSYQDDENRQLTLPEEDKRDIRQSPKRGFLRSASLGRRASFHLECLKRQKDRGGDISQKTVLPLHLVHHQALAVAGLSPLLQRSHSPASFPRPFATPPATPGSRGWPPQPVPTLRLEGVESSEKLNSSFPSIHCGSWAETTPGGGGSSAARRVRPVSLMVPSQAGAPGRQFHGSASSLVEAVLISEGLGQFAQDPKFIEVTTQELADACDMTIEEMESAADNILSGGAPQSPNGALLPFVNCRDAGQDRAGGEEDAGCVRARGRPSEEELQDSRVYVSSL
# Sequence (P54289 25-1103 partner): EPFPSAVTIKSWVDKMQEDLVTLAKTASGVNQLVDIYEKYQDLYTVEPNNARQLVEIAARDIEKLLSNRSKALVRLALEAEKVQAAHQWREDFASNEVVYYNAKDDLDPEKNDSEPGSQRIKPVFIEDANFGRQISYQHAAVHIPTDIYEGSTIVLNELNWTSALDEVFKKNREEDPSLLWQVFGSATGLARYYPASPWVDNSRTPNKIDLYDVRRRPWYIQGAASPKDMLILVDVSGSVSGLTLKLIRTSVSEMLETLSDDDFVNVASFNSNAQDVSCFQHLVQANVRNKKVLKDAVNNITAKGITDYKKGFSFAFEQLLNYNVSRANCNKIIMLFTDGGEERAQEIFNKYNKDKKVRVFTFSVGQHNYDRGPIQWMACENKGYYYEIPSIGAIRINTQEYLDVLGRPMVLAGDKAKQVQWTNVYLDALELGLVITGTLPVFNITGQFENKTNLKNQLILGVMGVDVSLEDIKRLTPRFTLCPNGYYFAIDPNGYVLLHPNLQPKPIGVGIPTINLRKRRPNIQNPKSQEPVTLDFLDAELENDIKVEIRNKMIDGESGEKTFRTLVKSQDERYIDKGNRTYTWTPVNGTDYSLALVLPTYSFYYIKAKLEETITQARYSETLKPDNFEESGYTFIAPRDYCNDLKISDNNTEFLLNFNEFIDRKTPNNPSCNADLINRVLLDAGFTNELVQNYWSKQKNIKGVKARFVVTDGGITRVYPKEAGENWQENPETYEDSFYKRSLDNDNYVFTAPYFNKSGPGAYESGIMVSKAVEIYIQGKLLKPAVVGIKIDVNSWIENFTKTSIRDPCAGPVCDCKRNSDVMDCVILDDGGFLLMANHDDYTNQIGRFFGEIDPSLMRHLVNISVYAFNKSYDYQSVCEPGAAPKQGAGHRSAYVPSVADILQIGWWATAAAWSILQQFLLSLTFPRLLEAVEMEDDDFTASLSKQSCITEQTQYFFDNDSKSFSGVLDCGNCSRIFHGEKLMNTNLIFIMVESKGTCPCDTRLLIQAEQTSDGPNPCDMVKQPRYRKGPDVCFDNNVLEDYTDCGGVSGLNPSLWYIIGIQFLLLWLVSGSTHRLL
# Sequence (Q08289 whole entry partner): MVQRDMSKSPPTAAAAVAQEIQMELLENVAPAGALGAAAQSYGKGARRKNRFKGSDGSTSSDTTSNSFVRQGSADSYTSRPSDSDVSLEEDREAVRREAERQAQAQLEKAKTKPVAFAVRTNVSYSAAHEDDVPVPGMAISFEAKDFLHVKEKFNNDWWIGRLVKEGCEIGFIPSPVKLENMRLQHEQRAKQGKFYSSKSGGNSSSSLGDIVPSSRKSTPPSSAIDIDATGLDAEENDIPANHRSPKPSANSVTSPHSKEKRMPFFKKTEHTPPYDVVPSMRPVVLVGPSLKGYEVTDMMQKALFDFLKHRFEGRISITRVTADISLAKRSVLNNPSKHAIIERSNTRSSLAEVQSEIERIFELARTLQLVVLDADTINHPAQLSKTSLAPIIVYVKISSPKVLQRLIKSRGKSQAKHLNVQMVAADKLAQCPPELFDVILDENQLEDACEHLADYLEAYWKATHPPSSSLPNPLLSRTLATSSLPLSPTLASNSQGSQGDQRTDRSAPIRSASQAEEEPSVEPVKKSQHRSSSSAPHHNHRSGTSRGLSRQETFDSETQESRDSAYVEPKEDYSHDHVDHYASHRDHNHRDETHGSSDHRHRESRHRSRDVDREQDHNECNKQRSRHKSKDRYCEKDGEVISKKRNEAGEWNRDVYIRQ
# METHOD DESCRIPTION: FLIPR data, CAv1.2 channel blocking (Table 6)
# Assay type: cell-based
# CONDITION INFO: inactivated state, read-out: CAv1.2 IC50 Inact.
Quick list: pIC50 per entry.
Worth noting: pIC50 values are minus log10 of concentrations stated in mol/L.

{"columns": ["COMPOUND", "pIC50"],
 "data": [
  ["CC(C)(C[C@H]1C[C@@H](NC(=O)c2cnc(C(F)(F)F)nc2)C1)S(=O)(=O)c1cccc(C(F)(F)F)c1 [Compound 734]", 5.25],
  ["O=S(=O)(c1cc(F)cc(C(F)(F)F)c1)[C@H]1C[C@@H](CNc2ccnc(C(F)(F)F)n2)C1 [Compound 651]", 5.41],
  ["CC(C)([C@H]1C[C@H](NS(=O)(=O)c2ccc(Cl)c(F)c2)C1)S(=O)(=O)c1cc(F)cc(C(F)(F)F)c1 [Compound 607]", 5.52],
  ["CC(C)([C@H]1C[C@H](NS(=O)(=O)c2ccc(OC(F)(F)F)cc2)C1)S(=O)(=O)c1cccc(C(F)(F)F)c1 [Compound 669]", 5.48]
]}

Task item: What pIC50 value was documented for this compound, CC(C)([C@H]1C[C@H](NC(=O)c2ccc(Cl)c(F)c2)C1)S(=O)(=O)c1cccc(OC(F)(F)F)c1 [Compound 633] ?
Reply: 5.93

Task item: Entry to check: O=C(NC[C@H]1C[C@H](S(=O)(=O)c2cccc(OC(F)(F)F)c2)C1)c1cnc(C(F)(F)F)nc1 [Compound 696]
Reply: 5.08

Task item: Try the compound CC(C)([C@H]1C[C@H](NS(=O)(=O)c2ccc(C(F)(F)F)cc2)C1)S(=O)(=O)c1cc(F)cc(C(F)(F)F)c1 [Compound 605]
Reply: 5.72

Task item: What do you have for CC(C)([C@H]1C[C@H](Nc2ccnc(C(F)(F)F)n2)C1)S(=O)(=O)c1cccc(OC(F)(F)F)c1 [Compound 647] ?
Reply: 5.97
